test system: Fibroblast; test: Multiplex assay against human fibroblast; type: toxicity, cell-based; details: 24 h, 1 µM, compound concentration 1 uM, replicate 2

compound | test system | readout unit | Population Apoptotic (%)
c1ccc2oc(-c3csc(C4CCN(Cc5nc6ncccc6[nH]5)CC4)n3)cc2c1 | Fibroblast | % | 25
Cc1nc(Cc2cccc(C(F)(F)F)c2)sc1-c1ccc(C(N)=O)nc1 [TP-024n] | Fibroblast | % | 50
CN(C)C/C=C/C(=O)Nc1cc2c(Nc3ccc(F)c(Cl)c3)ncnc2cc1O[C@H]1CCOC1.O=C(O)/C=C\C(=O)O.O=C(O)/C=C\C(=O)O [AFATINIB DIMALEATE] | Fibroblast | % | 50
CNc1oc(-c2cccc3ccccc23)nc1C#N | Fibroblast | % | 25
Cc1cn(-c2cc(NC(=O)c3ccc4c(c3)CN(c3cncnc3)C[C@@H]4C)cc(C(F)(F)F)c2)cn1 | Fibroblast | % | 42
COc1cc2c(NC3CCN(C(C)C)CC3)nc(N3CCC(F)(F)CC3)nc2cc1OCCCN1CCCC1 | Fibroblast | % | 29
N#Cc1cnc(Nc2cc(NC[C@H]3CNCCO3)c(C(F)(F)F)cn2)cn1 [SRA-737] | Fibroblast | % | 42
CC(C)Oc1ccc(C(=O)N[C@H](CNC(=O)CN(C)C)Cc2ccc(-c3cn4cccc([C@H](C)O)c4n3)cc2)cc1Cl [GSK-923295A] | Fibroblast | % | 100
Nc1nc2c(c(N3CCNCC3)n1)CCC1=C2[C@@H]2CCCC[C@@H]2O1 | Fibroblast | % | 20
